Measured TGI, listed per entry for reference.
- System: MCF7 breast
- assay.explanation: NCI tumour cell line growth inhibition, 48 h
value.kind: TGI

# compound, test.value
rows = [
    ("CCN(CC)C(=S)N/N=C(/c1ccccc1)c1ccccn1", "> 54 µM"),
    ("CC1(C)CCC[C@]2(C)c3ccccc3C(=O)CC12 (stereo partly drawn)", "> 100 µM"),
    ("C=CN(C=C)C(=O)Cn1cc(-c2ccccc2)nn1", "> 100 µM"),
    ("O=C(Nc1nn(C(=O)c2cccnc2)c(=O)s1)c1ccc(Cl)cc1", "> 100 µM"),
    ("CCOC(=O)/C=C/c1cccc(F)c1", "> 100 µM"),
    ("Cn1c(=O)cc(NNc2ccc(Cl)c(Cl)c2)[nH]c1=O", "21.4 µM"),
    ("C=C(C)[C@H]1CC23C(=O)[C@@](C)(C[C@H]2C1(C)C)C(=O)C(C(=O)C(C)C)=C3O", "32.6 µM"),
    ("COc1cc2c3c(n(CCCNCCCN)c(=O)c2cc1OC)-c1cc2c(cc1C3=O)OCO2", "5.08 µM"),
    ("CC(C)=CCc1c(O)cc2oc(-c3ccc(O)cc3O)cc(=O)c2c1O", "> 65.6 µM"),
    ("CSc1ncc2c(n1)-c1ccccc1OC2NC1CC1 (stereo not drawn)", "> 100 µM"),
    ("Cc1cc(-c2ccccc2)nc2oc(=O)n(C)c12", "> 100 µM"),
    ("O=C1c2cc3c(cc2CC12Cc1ccc4c(c1C2=O)CCC4)CCC3 (stereo not drawn)", "> 100 µM"),
    ("Cc1cccc2c1[nH]c(=O)c1c3ccccc3cn21", "12.5 µM"),
]

---

- System: A498 renal
- assay.explanation: NCI tumour cell line growth inhibition, 48 h; in the data active means GI50 below about 0.43 µM; inactive means the rest
Outcomes: 1 (yes) = active, 0 (no) = inactive

# compound, category
rows = [
    ("CCN(CC)CCCCNc1c2ccc(Cl)cc2nc2ccc(OC)cc12", "0 (no)"),
    ("CCn1c2ccccc2c2cc(C(=O)c3ccc(C)c4ccccc34)ccc21", "1 (yes)"),
    ("O=C(/C=C/C12c3ccccc3C(c3ccccc31)C1C(=O)NC(=O)C12)c1ccccc1 (stereo not given)", "0 (no)"),
    ("CC/C(=C/c1ccc(OC)cc1OC)[N+](=O)[O-]", "0 (no)"),
    ("COc1cc2c3c(n(CCCNCCCN)c(=O)c2cc1OC)-c1cc2c(cc1C3=O)OCO2", "0 (no)"),
]

---

We begin with a simple list: items and their reported TGI.
- System: MCF7 breast
- assay.explanation: NCI tumour cell line growth inhibition, 48 h

# molecule, TGI
data = [
    ("CC1=NN2C(=N)/C(=C/c3ccc(F)cc3)C(=O)N=C2S1", "> 100 µM"),
    ("CC/C=N\\N1C(N)=C(C#N)C(C#N)(C#N)C1CC (centres undefined)", "> 100 µM"),
    ("CC1SC(c2ccc(Cl)cc2Cl)N(NC(=O)C(O)c2ccccc2)C1=O (centres undefined)", "> 100 µM"),
    ("CC(=O)Oc1ccc2c(-c3ccccc3)c(Oc3ccc(Cl)cc3)c(=O)oc2c1", "39.8 µM"),
    ("CNC(=O)c1cncc(/C=C/c2ccccc2Cl)c1", "> 25 µM"),
    ("COc1ccc(C2c3cc4c(cc3OC(Nc3ccccc3)C2C)OCO4)cc1 (centres undefined)", "> 100 µM"),
    ("C[N+](C)=c1ccc2nc3c(cc(NCCCNc4cc5oc6cc(=[N+](C)C)ccc-6nc5c5ccccc45)c4ccccc43)oc-2c1", "3.23 µM"),
    ("CSc1nc(Cl)c2c(n1)Sc1nc3ccccc3n1C2O (centres undefined)", "> 100 µM"),
    ("COC1(CC[C@H](C)COC2OC(CO)C(O)C(O)C2O)O[C@H]2C[C@H]3[C@@H]4CC=C5C[C@@H](OC6OC(CO)C(OC7OC(C)C(O)C(O)C7O)C(O)C6OC6OC(C)C(O)C(O)C6O)CC[C@]5(C)[C@H]4CC[C@]3(C)[C@H]2[C@@H]1C (some centres undefined)", "39.8 µM"),
]

---

Quick reference: TGI of the listed items.
- System: MCF7 breast
- assay.explanation: NCI tumour cell line growth inhibition, 48 h
value.kind: TGI

# molecule, test.value
data = [
    ("COc1cc2c(c(OC)c1)[C@H](C)N(Cc1ccccc1)C(C)C2 (stereo not given in full)", "> 100 µM"),
    ("CS(=O)(=O)Nc1ccc2ccccc2c1", "> 100 µM"),
    ("N#CCCN(CCC#N)c1ccc(C(N=Nc2ccccc2)=Nc2ccc(F)cc2)cc1", "> 100 µM"),
    ("O=c1c2c3c(sc2nc2n1N=C(c1ccc(Br)cc1)CS2)CCCC3", "> 100 µM"),
    ("COc1cc(C(=O)c2cocc2C(=O)c2ccc3c(c2)OCO3)cc(OC)c1OC", "> 100 µM"),
    ("CCc1nc2c(c(N(C)C)c1C(=O)OC)CCc1ccccc1-2", "48.2 µM"),
    ("O=C(NC(C(F)(F)F)(C(F)(F)F)P(=O)(Cc1ccccc1)Cc1ccccc1)C(C(F)(F)F)C(F)(F)F", "31.8 µM"),
    ("Cc1cc(-c2cc(C(C)(C)C)c(O)c(C(C)(C)C)c2)c(C)cc1-c1cc(C(C)(C)C)c(O)c(C(C)(C)C)c1", "> 100 µM"),
    ("C[C@@H]1CC[C@@]2(NC1)O[C@H]1C[C@H]3[C@@H]4CC[C@H]5C[C@@H](O)CC[C@]5(C)[C@H]4CC[C@]3(C)[C@H]1[C@@H]2C", "> 100 µM"),
    ("O=C[C@@H](CO)O[C@H](C=O)n1cnc2c(=O)[nH]cnc21", "409 µM"),
]

---

- Tested on: SF-539 CNS
- assay.explanation: NCI tumour cell line growth inhibition, 48 h

# compound, TGI
measured = [
    ("CCC(CO)Nc1nc2c(c(=O)n(C)c(=O)n2C)n1CCO (stereo not given)", "> 100 µM"),
    ("CNC(=O)c1cncc(/C=C/c2ccccc2Cl)c1", "> 25 µM"),
    ("CC1=NN2C(=N)/C(=C/c3ccc(F)cc3)C(=O)N=C2S1", "> 100 µM"),
    ("Cc1nc2c(=O)n(-c3ccccc3)c(=O)n(-c3ccccc3)c2o1", "> 100 µM"),
    ("O=C1C=CC(=O)c2c(O)c(N3CCC[C@@H]3CO)c(Cl)c(O)c21", "3.42 µM"),
    ("CC1SC(c2ccc(Cl)cc2Cl)N(NC(=O)C(O)c2ccccc2)C1=O (stereo not given)", "> 100 µM"),
    ("CC1(C)OCC(C2OC(C)(C)OC2[C@H]2O[C@@]3(O)[C@H]4[C@H](C=CC[C@@H]42)[C@@H](OCc2ccccc2)[C@H](OCc2ccccc2)[C@H]3OCc2ccccc2)O1 (stereo not given in full)", "> 100 µM"),
    ("COc1cc(NCCCCCN=C(N)NC(N)=NC(C)C)c2ncccc2c1", "12.8 µM"),
    ("CC1=C(C(=O)OCCO[N+](=O)[O-])C(c2ccccc2[N+](=O)[O-])C(C(=O)OC(C)C)=C(C)N1 (stereo not given)", "33.2 µM"),
    ("Clc1ccc(/C(=C/c2ccccc2)Cn2ccnc2)cc1", "80.9 µM"),
]

---

- System: A498 renal
- assay.explanation: NCI tumour cell line growth inhibition, 48 h

# molecule, GI50
records = [
    ("O=P(O)(O)OCC1OC(n2cnc3c(NCc4ccccc4)ncnc32)C(O)C1O (centres undefined)", "2.05 µM"),
    ("N#Cc1cc(S(=O)(=O)Nc2nc3ccccc3o2)c(SCc2ccccc2)cc1Cl", "21.3 µM"),
    ("COC(=O)[C@H](Cc1cn(C)cn1)NC(=O)[C@H](Cc1ccccc1)NC(=O)Nc1cc(C(F)(F)F)cc(C(F)(F)F)c1", "15.8 µM"),
    ("CC1SC(c2ccc(Cl)cc2Cl)N(NC(=O)C(O)c2ccccc2)C1=O (centres undefined)", "> 100 µM"),
]

---

- Test system: A549 NSCLC
- assay.explanation: NCI tumour cell line growth inhibition, 48 h; in the data active = GI50 below about 0.43 µM; inactive = the rest
Classes used: active, inactive

# compound, category
measured = [
    ("N#Cc1cc(S(=O)(=O)Nc2nc3ccccc3o2)c(SCc2ccccc2)cc1Cl", "inactive"),
    ("CCCCn1c(=O)c(/C=C/C(=O)/C=C/c2cc3ccccc3n(CCCC)c2=O)cc2ccccc21", "inactive"),
    ("Cc1ccc(C(=O)NC2CC2)cc1-c1ccc2[nH]ncc2c1", "inactive"),
    ("O=C(/C=C/C12c3ccccc3C(c3ccccc31)C1C(=O)NC(=O)C12)c1ccccc1 (configuration not stated)", "inactive"),
    ("CCN(Cc1c(F)cccc1Cl)c1ccc(CO)c(Cl)c1", "inactive"),
    ("COc1ccc2[nH]c(C(=O)OCc3ccc4c(Cl)cc(Cl)c(O)c4n3)cc2c1", "inactive"),
    ("CCN(CC)CCCCNc1c2ccc(Cl)cc2nc2ccc(OC)cc12", "active"),
    ("C[CH2][Sn]([CH2]C)([O]C(=O)c1ccc(F)cc1)[O]C(=O)c1ccc(F)cc1", "inactive"),
    ("CN1CCN(CCCOc2cc(O)c3c(=O)cc(-c4ccccc4)oc3c2)CC1", "inactive"),
    ("CN(C)CCCNc1nc2ccccc2c2[nH]c3ccccc3c12", "active"),
    ("N#Cc1cccc(C2C3=C(COC3=O)N(CCO)c3cc4c(cc32)OCO4)c1 (configuration not stated)", "inactive"),
    ("O=C1c2cc3c(cc2-c2c1c1ccc(Cl)cc1c(=O)n2CCCn1ccnc1)OCO3", "active"),
]
